Origin of the recorded values: ChEMBL document CHEMBL1156737

# subject-of-test: Glycogen phosphorylase, muscle form (Oryctolagus cuniculus)
# Sequence (P00489 whole entry): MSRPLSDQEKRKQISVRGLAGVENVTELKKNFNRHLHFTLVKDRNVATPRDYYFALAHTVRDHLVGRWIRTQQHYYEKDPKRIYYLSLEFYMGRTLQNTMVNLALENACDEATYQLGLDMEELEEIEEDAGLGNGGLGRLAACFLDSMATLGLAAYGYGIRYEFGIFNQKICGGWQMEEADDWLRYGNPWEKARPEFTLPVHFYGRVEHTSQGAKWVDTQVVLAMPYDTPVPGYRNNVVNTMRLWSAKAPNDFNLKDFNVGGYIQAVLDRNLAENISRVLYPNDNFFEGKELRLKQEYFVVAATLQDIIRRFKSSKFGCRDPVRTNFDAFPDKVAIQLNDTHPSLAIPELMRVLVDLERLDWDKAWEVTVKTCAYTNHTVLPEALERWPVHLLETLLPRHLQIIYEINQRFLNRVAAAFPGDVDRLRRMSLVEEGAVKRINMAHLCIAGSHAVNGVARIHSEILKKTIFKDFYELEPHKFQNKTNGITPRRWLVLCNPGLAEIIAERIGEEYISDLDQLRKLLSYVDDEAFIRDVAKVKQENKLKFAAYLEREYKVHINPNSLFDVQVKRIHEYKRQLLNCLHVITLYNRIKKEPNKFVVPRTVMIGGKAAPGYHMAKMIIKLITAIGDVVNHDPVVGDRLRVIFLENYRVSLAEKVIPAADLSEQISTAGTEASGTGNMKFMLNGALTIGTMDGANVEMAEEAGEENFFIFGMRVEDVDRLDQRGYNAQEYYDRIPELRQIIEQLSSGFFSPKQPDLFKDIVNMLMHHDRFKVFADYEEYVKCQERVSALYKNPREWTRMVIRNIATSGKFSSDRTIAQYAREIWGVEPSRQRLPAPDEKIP
# experiment-notes: Inhibition of rabbit muscle glycogen phosphorylase A assessed as release of phosphate from glucose-1-phosphate after 25 mins
# condition-label: read-out: IC50
measurement-name: IC50 (µM)

[[record]]
compound = "C=C(C)[C@@H]1CC[C@]2(COC(=O)C(=O)NCCCC)CC[C@]3(C)[C@H](CC[C@@H]4[C@@]5(C)CC[C@H](OC(=O)C(=O)NCCCC)[C@@](C)(COC(=O)C(=O)NCCCC)[C@@H]5CC[C@]43C)[C@@H]12"
subject_of_test = "Glycogen phosphorylase, muscle form (Oryctolagus cuniculus)"
measurement_name = "IC50"
measured = 34.7

[[record]]
compound = "C=C(C)[C@@H]1CC[C@]2(C(=O)NCCCCCCNC(C)=O)CC[C@]3(C)[C@H](CC[C@@H]4[C@@]5(C)CC[C@H](OC(C)=O)[C@@](C)(COC(C)=O)[C@@H]5CC[C@]43C)[C@@H]12"
subject_of_test = "Glycogen phosphorylase, muscle form (Oryctolagus cuniculus)"
measurement_name = "IC50"
measured = 34.1

[[record]]
compound = "C=C(C)[C@@H]1CC[C@]2(C(=O)NCCCN(CC)CC)CC[C@]3(C)[C@H](CC[C@@H]4[C@@]5(C)CC[C@H](OC(C)=O)[C@@](C)(COC(C)=O)[C@@H]5CC[C@]43C)[C@@H]12"
subject_of_test = "Glycogen phosphorylase, muscle form (Oryctolagus cuniculus)"
measurement_name = "IC50"
measured = 72.8

[[record]]
compound = "C=C(C)[C@@H]1CC[C@]2(COC(C)=O)CC[C@]3(C)[C@H](CC[C@@H]4[C@@]5(C)CC[C@H](OC(C)=O)[C@@](C)(COC(C)=O)[C@@H]5CC[C@]43C)[C@@H]12"
subject_of_test = "Glycogen phosphorylase, muscle form (Oryctolagus cuniculus)"
measurement_name = "IC50"
measured = 143

[[record]]
compound = "C=C(C)[C@@H]1CC[C@]2(C(=O)NCC(=O)O)CC[C@]3(C)[C@H](CC[C@@H]4[C@@]5(C)CC[C@H](O)[C@@](C)(CO)[C@@H]5CC[C@]43C)[C@@H]12"
subject_of_test = "Glycogen phosphorylase, muscle form (Oryctolagus cuniculus)"
measurement_name = "IC50"
measured = 67.7

[[record]]
compound = "C=C(C)[C@@H]1CC[C@]2(C(=O)OCC#CCO)CC[C@]3(C)[C@H](CC[C@@H]4[C@@]5(C)CC[C@H](O)[C@@](C)(CO)[C@@H]5CC[C@]43C)[C@@H]12"
subject_of_test = "Glycogen phosphorylase, muscle form (Oryctolagus cuniculus)"
measurement_name = "IC50"
measured = 194

[[record]]
compound = "C=C(C)[C@@H]1CC[C@]2(C(=O)OCCBr)CC[C@]3(C)[C@H](CC[C@@H]4[C@@]5(C)CC[C@H](O)[C@@](C)(CO)[C@@H]5CC[C@]43C)[C@@H]12"
subject_of_test = "Glycogen phosphorylase, muscle form (Oryctolagus cuniculus)"
measurement_name = "IC50"
measured = 289

[[record]]
compound = "C=C(C)[C@@H]1CC[C@]2(C(=O)OCC#CCOC(=O)CCC(=O)O)CC[C@]3(C)[C@H](CC[C@@H]4[C@@]5(C)CC[C@H](OC(C)=O)[C@@](C)(COC(C)=O)[C@@H]5CC[C@]43C)[C@@H]12"
subject_of_test = "Glycogen phosphorylase, muscle form (Oryctolagus cuniculus)"
measurement_name = "IC50"
measured = 94.5


I. C=C(C)[C@@H]1CC[C@]2(COC(=O)CCC(=O)O)CC[C@]3(C)[C@H](CC[C@@H]4[C@@]5(C)CC[C@H](OC(=O)CCC(=O)O)[C@@](C)(COC(=O)CCC(=O)O)[C@@H]5CC[C@]43C)[C@@H]12
II. C=C(C)[C@@H]1CC[C@]2(C(=O)NCCCCCCN)CC[C@]3(C)[C@H](CC[C@@H]4[C@@]5(C)CC[C@H](OC(C)=O)[C@@](C)(COC(C)=O)[C@@H]5CC[C@]43C)[C@@H]12
Query: Which entry shows the lesser value of IC50 here, I or II ? Returns: label corresponding to the selected item.
Result: II
(II: 3.5 µM, I: 97.8 µM)

I. C=C(C)[C@@H]1CC[C@]2(C(=O)OCCCCCCOC(=O)c3ccccc3C(=O)O)CC[C@]3(C)[C@H](CC[C@@H]4[C@@]5(C)CC[C@H](OC(C)=O)[C@@](C)(COC(C)=O)[C@@H]5CC[C@]43C)[C@@H]12
II. C=C(C)[C@@H]1CC[C@]2(C(=O)NCCCCCCNCC)CC[C@]3(C)[C@H](CC[C@@H]4[C@@]5(C)CC[C@H](OC(C)=O)[C@@](C)(COC(C)=O)[C@@H]5CC[C@]43C)[C@@H]12
Query: Name the one with the greater IC50 value, either I or II as given. Returns: label corresponding to the selected item.
Result: I
